Target: HCV NS5B RdRp genotype 1b (Hepatitis C virus genotype 1b)
Construct: The protein was expressed with an 18 amino acid C-terminal truncation to enhance the solubility; made in house; host or cells: E. coli BL21 (DE3), pET21a
Assay: Modified HCV NS5B RdRp enzyme assay (with preincubation)
Type: biochemical
Conditions: modified method (with preincubation)
Parameter measured: IC50

>  <Compound>
CN(C)S(=O)(=O)NC(=O)c1ccc2c(C3CCCCC3)c3n(c2c1)CC(C(=O)N1CCCOCC1)=Cc1ccccc1-3

>  <IC50>
20 to 1000 nM

$$$$
>  <Compound>
COC(=O)C1=Cc2cc(OCc3ccccc3)ccc2-c2c(C3CCCCC3)c3ccc(C(=O)NS(=O)(=O)N(C)C)cc3n2C1

>  <IC50>
20 to 1000 nM

$$$$
>  <Compound>
COC(=O)c1ccc2c(C3CCCCC3)c3n(c2c1)CC(O)Cc1ccccc1-3 (stereo not shown)

>  <IC50>
> 1000 nM

$$$$

Would you mind giving IC50 for every compound in the list below?
1. COC(=O)c1ccc2c(C3CCCCC3)c3n(c2c1)C[C@@H](O)[C@@H](O)c1ccccc1-3
2. CN(C)CCNC(=O)C1=Cc2ccccc2-c2c(C3CCCCC3)c3ccc(C(=O)NC4(C(=O)Nc5ccc(/C=C/C(=O)O)cc5)CCCC4)cc3n2C1
3. O=C(O)c1ccc2c(C3CCCCC3)c3c4ccccc4[nH]c(=O)n3c2c1

Result:
1. > 1000 nM
2. 20 to 1000 nM
3. > 1000 nM

Would you mind giving IC50 for every compound in the list below?
1. O=C(O)/C=C/c1ccc(NC(=O)C2(NC(=O)c3ccc4c(C5CCCCC5)c5n(c4c3)C[C@@H](O)[C@@H](O)c3ncccc3-5)CCCC2)cc1
2. CCOC(=O)c1cc2cc(NC(=O)C3(NC(=O)c4ccc5c(C6CCCCC6)c6n(c5c4)CC(=O)Nc4ccccc4-6)CCCC3)ccc2n1C
3. COC1c2ccccc2-c2c(C3CCCCC3)c3ccc(C(=O)NC4(C(=O)Nc5ccc(/C=C/C(=O)O)cc5)CCCC4)cc3n21 (stereo not shown)
4. COc1ccc2c(c1)CC(C(=O)N1CCOCC1)Cn1c-2c(C2CCCCC2)c2ccc(C(=O)O)cc21 (stereo not shown)
5. COC(=O)/C=C/c1ccc(NC(=O)C2(NC(=O)c3ccc4c(C5CCCCC5)c5n(c4c3)CCCc3sc(C)nc3-5)CCCC2)cc1

Result:
20 to 1000 nM
20 to 1000 nM
20 to 1000 nM
20 to 1000 nM
> 1000 nM

###

Answer each item with its documented pIC50.
Target: HCV NS5B RdRp genotype 1b (Hepatitis C virus genotype 1b, UniProt Q9WMX2)
Construct: The protein was expressed with an 18 amino acid C-terminal truncation to enhance the solubility; made in house; host or cells: E. coli BL21 (DE3), pET21a
Sequence (Q9WMX2 2420-2992): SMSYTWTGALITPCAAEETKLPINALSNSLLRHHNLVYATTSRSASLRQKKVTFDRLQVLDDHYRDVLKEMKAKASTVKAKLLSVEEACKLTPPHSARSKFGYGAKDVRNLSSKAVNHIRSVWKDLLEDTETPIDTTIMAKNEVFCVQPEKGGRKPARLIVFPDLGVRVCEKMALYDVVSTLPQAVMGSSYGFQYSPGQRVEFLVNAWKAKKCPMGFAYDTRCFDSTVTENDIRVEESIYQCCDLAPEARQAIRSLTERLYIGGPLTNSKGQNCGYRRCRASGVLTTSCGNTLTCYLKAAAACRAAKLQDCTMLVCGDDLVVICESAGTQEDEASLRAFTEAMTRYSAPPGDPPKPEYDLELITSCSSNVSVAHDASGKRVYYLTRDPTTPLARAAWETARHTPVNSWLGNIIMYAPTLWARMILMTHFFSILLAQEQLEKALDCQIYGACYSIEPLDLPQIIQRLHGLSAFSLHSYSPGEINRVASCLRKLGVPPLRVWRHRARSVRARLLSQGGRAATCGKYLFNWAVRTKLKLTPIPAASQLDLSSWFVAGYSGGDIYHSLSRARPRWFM
Test: Modified HCV NS5B RdRp enzyme assay (with preincubation)
Type: biochemical
Conditions: modified method (with preincubation)
pIC50: −log10 of the molar value.

Examples from the recorded data:
>  <Compound>
COC(=O)c1ccc2c(C3CCCCC3)c3n(c2c1)CC(C(=O)N1C[C@@H](C)O[C@@H](C)C1)=Cc1ccccc1-3

>  <Result>
< 6.00

$$$$
>  <Compound>
CC(C)S(=O)(=O)NC(=O)c1ccc2c(C3CCCCC3)c3n(c2c1)CC(C(=O)N1CCOCC1)=Cc1ccccc1-3

>  <Result>
6.00 to 7.70

$$$$

Would you mind giving pIC50 for every compound in the list below?
1. O=C(O)c1ccc2c(C3CCCCC3)c3n(c2c1)CCOc1ncccc1-3
2. O=C(O)c1ccc2c(C3CCCCC3)c3n(c2c1)CC(C(=O)N1CCCOCC1)=Cc1ccccc1-3
3. CCOC(=O)/C=C/c1ccc(NC(=O)C2(NC(=O)c3ccc4c(C5CCCCC5)c5n(c4c3)CC(=O)Nc3ccccc3-5)CCNCC2)cc1
4. O=C(O)/C=C/c1ccc(NC(=O)C2(NC(=O)c3ccc4c(C5CCCCC5)c5n(c4c3)CC(C(=O)N3CCCCC3)Cc3ccccc3-5)CCCC2)cc1 (centres unmarked)
5. NC(=O)C1(NC(=O)c2ccc3c(C4CCCCC4)c4n(c3c2)CC(=O)Nc2ccccc2-4)CCCC1
6. COC(=O)/C=C/c1ccc(NC(=O)C2(NC(=O)c3ccc4c(C5CCCCC5)c5n(c4c3)CCCc3ocnc3-5)CCCC2)cc1
7. O=C(NS(=O)(=O)c1ccccc1)c1ccc2c(C3CCCCC3)c3n(c2c1)C[C@@H](O)[C@@H](O)c1ncccc1-3

Result:
1: 6.00 to 7.70; 2: 6.00 to 7.70; 3: 6.00 to 7.70; 4: 6.00 to 7.70; 5: 6.00 to 7.70; 6: < 6.00; 7: 6.00 to 7.70

###

Biological target: HCV NS5B RdRp genotype 1b (Hepatitis C virus genotype 1b, UniProt Q9WMX2)
Construct: The protein was expressed with an 18 amino acid C-terminal truncation to enhance the solubility; made in house; host or cells: E. coli BL21 (DE3), pET21a
Assay: Standard HCV NS5B RdRp enzyme assay
Type: biochemical
Conditions: standard method
pIC50: −log10 of the molar value.
Parameter measured: pIC50

Examples from the recorded data:
>  <Compound>
CN(C)S(=O)(=O)NC(=O)c1ccc2c(C3CCCCC3)c3n(c2c1)CC(C(=O)N1CCC(N2CCCC2)CC1)Cc1ccccc1-3 (centres unmarked)

>  <Experimental system>
HCV NS5B RdRp genotype 1b (Hepatitis C virus genotype 1b, UniProt Q9WMX2)

>  <pIC50>
6.00 to 7.00

$$$$
>  <Compound>
O=C(O)c1ccc2c(C3CCCCC3)c3n(c2c1)CC=Cc1ccccc1-3 [Example 18]

>  <Experimental system>
HCV NS5B RdRp genotype 1b (Hepatitis C virus genotype 1b, UniProt Q9WMX2)

>  <pIC50>
< 6.00

$$$$
>  <Compound>
O=C(O)c1ccc2c(C3CCCCC3)c3n(c2c1)CC(C(=O)N1CCC(O)CC1)Cc1ccccc1-3 (centres unmarked)

>  <Experimental system>
HCV NS5B RdRp genotype 1b (Hepatitis C virus genotype 1b, UniProt Q9WMX2)

>  <pIC50>
6.00 to 7.00

$$$$
>  <Compound>
O=C(O)c1ccc2c(C3CCCCC3)c3n(c2c1)CC(C(=O)NCCO)Cc1ccccc1-3 (centres unmarked)

>  <Experimental system>
HCV NS5B RdRp genotype 1b (Hepatitis C virus genotype 1b, UniProt Q9WMX2)

>  <pIC50>
6.00 to 7.00

$$$$
>  <Compound>
CC(C)(C)OC(=O)/C=C/c1ccc(NC(=O)C2(NC(=O)c3ccc4c(C5CCCCC5)c5n(c4c3)CC(=O)Nc3cccnc3-5)CCCC2)cc1

>  <Experimental system>
HCV NS5B RdRp genotype 1b (Hepatitis C virus genotype 1b, UniProt Q9WMX2)

>  <pIC50>
< 6.00

$$$$
>  <Compound>
CN(C)S(=O)(=O)NC(=O)c1ccc2c(C3CCCCC3)c3n(c2c1)CCCc1ccccc1-3

>  <Experimental system>
HCV NS5B RdRp genotype 1b (Hepatitis C virus genotype 1b, UniProt Q9WMX2)

>  <pIC50>
6.00 to 7.00

$$$$

Would you mind giving pIC50 for every compound in the list below?
1. O=C(O)/C=C/c1ccc(NC(=O)C2(NC(=O)c3ccc4c(C5CCCCC5)c5n(c4c3)CCCCNc3ccccc3-5)CCCC2)cc1
2. CN(C)S(=O)(=O)NC(=O)c1ccc2c(C3CCCCC3)c3n(c2c1)CC(C(=O)N1CCCC(O)C1)Cc1ccccc1-3 (centres unmarked)
3. CCOC(=O)c1cc2ccccc2c2c(C3CCCCC3)c3ccc(C(=O)OC)cc3n12 [Example 16]
4. CNC(=O)C1Cc2ccccc2-c2c(C3CCCCC3)c3ccc(C(=O)O)cc3n2C1 (centres unmarked)
5. O=C(O)/C=C/c1ccc(NC(=O)C2(NC(=O)c3ccc4c(C5CCCCC5)c5n(c4c3)CC=Cc3ccccc3-5)CCCC2)cc1
6. O=C1Cn2c(c(C3CCCCC3)c3ccc(C(=O)NS(=O)(=O)C4CC4)cc32)-c2ccccc2N1

Result:
1: < 6.00; 2: 6.00 to 7.00; 3: < 6.00; 4: 6.00 to 7.00; 5: 6.00 to 7.00; 6: 6.00 to 7.00

###

Answer each item with its documented IC50.
Target: HCV NS5B RdRp genotype 1b (Hepatitis C virus genotype 1b, UniProt Q9WMX2)
Construct: The protein was expressed with an 18 amino acid C-terminal truncation to enhance the solubility; made in house; host or cells: E. coli BL21 (DE3), pET21a
Experiment: Modified HCV NS5B RdRp enzyme assay (with preincubation)
Format: biochemical
Conditions: modified method (with preincubation)

Examples from the recorded data:
>  <Compound>
CCOC(=O)/C=C/c1ccc(NC(=O)C2(N(C)C(=O)c3ccc4c(C5CCCCC5)c5n(c4c3)CCCc3ccccc3-5)CCCC2)cc1

>  <IC50>
> 1 µM

$$$$
>  <Compound>
CNC(=O)C1Cc2ccccc2-c2c(C3CCCCC3)c3ccc(C(=O)NC4(C(=O)Nc5ccc(/C=C/C(=O)O)cc5)CCCC4)cc3n2C1 (stereo not drawn)

>  <IC50>
0.02 to 1 µM

$$$$
>  <Compound>
O=C(O)/C=C/c1ccc(NC(=O)C2(NC(=O)c3ccc4c(C5CCCCC5)c5n(c4c3)C/C=C\CNc3ccccc3-5)CCCC2)cc1

>  <IC50>
0.02 to 1 µM

$$$$
>  <Compound>
CC(C)(C)OC(=O)N1CCn2c(c(C3CCCCC3)c3ccc(C(=O)NS(C)(=O)=O)cc32)-c2ccccc21

>  <IC50>
0.02 to 1 µM

$$$$
>  <Compound>
CN(CCO)C(=O)C1=Cc2ccccc2-c2c(C3CCCCC3)c3ccc(C(=O)NS(=O)(=O)N(C)C)cc3n2C1

>  <IC50>
0.02 to 1 µM

$$$$

Would you mind giving IC50 for every compound in the list below?
1. CN(C)C(=O)NC(=O)c1ccc2c(C3CCCCC3)c3n(c2c1)CC(C(=O)N1CCOCC1)=Cc1ccccc1-3
2. O=C(O)/C=C/c1ccc(NC(=O)C2(NC(=O)c3ccc4c(C5CCCCC5)c5n(c4c3)CCCN(CCO)c3ccccc3-5)CCCC2)cc1
3. O=C(NC1(C(=O)OCc2ccccc2)CCCC1)c1ccc2c(C3CCCCC3)c3n(c2c1)CCCc1cc(O)ccc1-3
4. CN(C)S(=O)(=O)NC(=O)c1ccc2c(C3CCCCC3)c3n(c2c1)CC(C(=O)N1CCNCC1)=Cc1ccccc1-3
5. CS(=O)(=O)NC(=O)c1ccc2c(C3CCCCC3)c3n(c2c1)CC=Cc1ncccc1-3
6. COC(=O)C1=Cc2ccncc2-c2c(C3CCCCC3)c3ccc(C(=O)OC)cc3n2C1
7. O=C(O)/C=C/c1ccc(NC(=O)C2(NC(=O)c3ccc4c(C5CCCCC5)c5n(c4c3)CCCc3ccccc3-5)CCNCC2)cc1 [drawing 160]

Result:
0.02 to 1 µM
0.02 to 1 µM
> 1 µM
0.02 to 1 µM
0.02 to 1 µM
> 1 µM
0.02 to 1 µM

Would you mind giving IC50 for every compound in the list below?
1. COC(=O)/C=C/c1ccc(NC(=O)C2(NC(=O)c3ccc4c(C5CCCCC5)c5n(c4c3)CC(=O)Cc3ccccc3-5)CCCC2)cc1
2. CN1CCN(C(=O)C2Cc3ccccc3-c3c(C4CCCCC4)c4ccc(C(=O)NC5(C(=O)Nc6ccc(/C=C/C(=O)O)cc6)CCCC5)cc4n3C2)CC1 (stereo not drawn)
3. O=C(O)/C=C/c1ccc(NC(=O)C2(NC(=O)c3ccc4c(C5CCCCC5)c5n(c4c3)CCCc3cc(O)ccc3-5)CCCC2)cc1

Result:
1: > 1 µM; 2: 0.02 to 1 µM; 3: 0.02 to 1 µM
